test: inhibitors of TNFa-induced NFkB p65 translocation, primary screen, imaging, HUVEC, MLSMR starter and 10KST1 sets (AID 438); conditions: HUVEC TNFa-induced p65 nuclear translocation; measured here: nuclei count (cytotoxicity indicator), at 2.08 µM;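 also: compound added about 3h40 before a 20 min TNFalpha stimulation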
Value kind: cell count
Lab note: record just the number, no unit beside it.

{"Compound": "COc1ccc(-n2c(=O)cc(N3CCN(Cc4ccccc4)CC3)[nH]c2=O)cc1", "cell count": 672}
{"Compound": "COCCn1c(Sc2nc(C)cs2)nc2c1c(=O)[nH]c(=O)n2C", "cell count": 422}
{"Compound": "C=CCOc1ccc(CN(C)CC(=O)N(CC(C)C)c2c(N)n(CC(C)C)c(=O)[nH]c2=O)cc1", "cell count": 492}
{"Compound": "CCOC(=O)c1cccc(NC(=O)C2CCN(S(=O)(=O)c3cccs3)CC2)c1", "cell count": 369}
{"Compound": "NC(=O)C1CCN(C(=O)c2cc3n(n2)C(C(F)(F)F)CC(c2ccco2)N3)CC1 (stereo not given)", "cell count": 537}

Prompt: # lookup: cell count of COc1ccc(CCN2C(=O)C3C4C=CC(C4)C3C2=O)cc1OC (stereo not given)
Response: 493

Prompt: Report cell count for Cc1nnc(N(C)C(=O)c2cccnc2)s1 please.
Response: 704

Prompt: For O=C(Cn1cnc2ccccc2c1=O)NCCC(=O)N1CCN(Cc2ccccc2)CC1 , what is its reported cell count?
Response: 451

Prompt: Need cell count of CC1CCN(S(=O)(=O)c2ccc3[nH]c(=O)cc(C(=O)O)c3c2)CC1 , thanks.
Response: 323

Prompt: What value of cell count has been reported for the following compound? CC1CCCN(C(=O)CN2CCN(C(=O)c3ccco3)CC2)C1 (stereo not given)
Response: 238

Prompt: So what's the measured cell count for this one? CCn1c(CCNC(=O)c2cccs2)nnc1SCC(=O)c1ccc(OC)cc1
Response: 263

Prompt: Record request: cell count value, item Cc1ccccc1CN1CCN(C(=O)c2cccc(F)c2)CC1
Response: 284

Prompt: # query: cell count of entry Cc1ccc(Cn2ccc(NC(=O)c3noc4c3CCCC4)n2)cc1
Response: 246

Prompt: Would you mind telling me what cell count value was observed for CCOC(=O)C1CCN(C(=O)CN(c2ccc(Cl)c(C(F)(F)F)c2)S(C)(=O)=O)CC1 ?
Response: 648

Prompt: So what's the measured cell count for this one? CC1=C(C(N)=O)C(c2ccccn2)n2nc(-c3ccccc3Cl)nc2N1 (stereo not given)
Response: 588

Prompt: # input compound: CCOc1ccc(S(=O)(=O)Nc2ccc(Cl)cn2)c(C)c1C ; wanted: its cell count
Response: 536

Prompt: Given the compound CN(C)CCCNC(=O)CCC1CCCCC1 , what is its reported cell count?
Response: 333

Prompt: Bench note: what cell count did COc1ncnc2c1N=C1CC(C)(C)CC(N)=C1S2 show?
Response: 309

Prompt: cell count lookup needed for CC(=O)Nc1nc(-c2ccccc2)nc(C)c1C(C)=O , thanks.
Response: 366
